# assay.target: Vasopressin V1a receptor (Homo sapiens)
# protocol.description: V1R activation via calcium rise – fluorescence, CHO-V1R cells, counter-screen for OXTR agonist project, primary screen (AID 2797);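 also: signal is peak over basal fluorescence ratio across a 100 second FLIPR read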
# cond: Fluo-8 calcium fluorescence, agonist mode, at 3 µM, hits give high values, 0% DMSO, 100% 3 nM vasopressin
About 820 (0.26%) of roughly 320,000 compounds were called active. The sample holds actives, similar compounds and a random draw of the others, so the mix is not that of the screen.
measured.attribute: activation (%)
Answer with a number only, understood to be in %.

compound=Fc1ccc(COc2ccc(-c3nnco3)cc2)cc1 reported_value=0.56
compound=Cc1ccc(CN2CCN(c3ccccc3Cl)CC2)o1 reported_value=-0.73
compound="COCC1CCN(C(=O)CCc2nnc(C3(c4ccc(Cl)cc4)CCC3)o2)C1 (stereo unspecified)" reported_value=-0.39
compound=COc1ccc(C(=O)NC(=S)NC2CCCCC2)cc1 reported_value=-0.74

Request: Quick one: activation for `O=C(NCc1cccnc1)c1cc(S(=O)(=O)N2CCOCC2)c(Cl)cc1Cl` ?
Response: 1.17

Request: Quick one: activation for Cc1cc(C)nc(SC(C)C(=O)N/N=C/c2cccs2)n1 (stereo unspecified) ?
Response: 0.12

Request: Quick one: activation for `COc1cccc2cc(C(N)=O)/c(=N\NC(=O)c3ccccc3)oc12` ?
Response: 1.9

Request: Quick one: activation for `CC(=O)Nc1cccc(NC(=O)CSc2nccn2Cc2ccc(F)cc2)c1` ?
Response: 3.25

Request: Quick one: activation for `CCN1CCN(c2sc(S(C)(=O)=O)nc2S(=O)(=O)c2ccc(Cl)cc2)CC1` ?
Response: 0.09

Request: Quick one: activation for CCOc1ccc(C2NC(=S)NC3=C2CCc2ccccc23)cc1 (stereo unspecified) ?
Response: 0.4

Request: Quick one: activation for `NC(=O)c1cc2ccccc2o/c1=N/NC(=O)c1cccc(F)c1` ?
Response: 1.54
